tested on: OVCAR-8 ovarian; assay: NCI tumour cell line growth inhibition, 48 h; in the data active = GI50 below about 0.43 µM; inactive = the rest
Return exactly one item of 1 (yes) (active), 0 (no) (inactive)

Illustrative cases are given below, each with its answer.
[
  {
    "compound": "C1CCC([PH+](C2CCCCC2)C2CCCCC2[PH+](C2CCCCC2)C2CCCCC2)CC1.[Au].[CH-]1CCCCC1CC1CCCC[N-]1 (centres undefined)",
    "classification": "1 (yes)"
  },
  {
    "compound": "COc1ccc2c(c1)N(CCO)C1=C(C(=O)OC1)C2c1cccc(F)c1 (centres undefined)",
    "classification": "0 (no)"
  },
  {
    "compound": "O=C(NN1C(=O)CSC12CCCCC2)c1[nH]c2ccc(Br)cc2c1-c1ccccc1",
    "classification": "0 (no)"
  },
  {
    "compound": "c1cnn2ncc(-c3ccnc(NCCCN4CCOCC4)n3)c2c1",
    "classification": "0 (no)"
  },
  {
    "compound": "CN[C@@H](C)C(=O)N[C@H](C(=O)N1CCC[C@H]1C(=O)Nc1sc(-c2ncco2)nc1-c1ccccc1)C1CCCCC1",
    "classification": "0 (no)"
  },
  {
    "compound": "O=[N+]([O-])c1ccc(C=Cc2ccccc2)cc1.[C-]#[O+].[C-]#[O+].[C-]#[O+].[Cr]",
    "classification": "0 (no)"
  },
  {
    "compound": "CC(=O)OC12C=C(C)C(C(C)C1)C1C(=O)N(CCN3CCOCC3)C(=O)C12 (centres undefined)",
    "classification": "0 (no)"
  },
  {
    "compound": "CO/N=C(\\COc1ccc2c(c1)[nH]c1ccccc12)c1ccc(F)cc1",
    "classification": "0 (no)"
  }
]

Query: Entry CNCCCNCCCCNCCCN1C(=O)c2ccc3c4c(ccc(c24)C1=O)C(=O)N(CCCNCc1ccccc1OC)C3=O : call = ?
Reply: 0 (no)

* * *

test system: U251 CNS; test: NCI tumour cell line growth inhibition, 48 h
quantity: TGI

Below are worked cases with known answers.
[
  {
    "molecule": "CC(=O)/C=C/c1cn(C(=O)OC(C)(C)C)c2ccc(Br)cc12",
    "TGI": "25.5 µM"
  },
  {
    "molecule": "O=C(O)C12C3CCC(CC3)C1(C(=O)O)C1CCC2C1 (stereo unspecified)",
    "TGI": "> 100 µM"
  },
  {
    "molecule": "NC(N)=NCC[C@H](NC(=O)OCCCCCn1ccc(=O)[nH]c1=O)C(=O)O",
    "TGI": "> 100 µM"
  }
]

Query: Please give the measured TGI for this molecule: Cc1[nH]c2ccccc2c1C(=O)CC1(O)C(=O)Nc2c(Cl)cc(Cl)cc21 (stereo unspecified)
Reply: > 100 µM

Query: Please give the measured TGI for this molecule: CCc1ccc2c(c1)N(CCO)C1=C(C(=O)OC1)C2c1cccc(Br)c1 (stereo unspecified)
Reply: 14.5 µM

Query: Please give the measured TGI for this molecule: COc1ccc(-c2nc(Nc3cc(C)[nH]n3)c3ccccc3n2)cc1
Reply: > 100 µM

Query: Please give the measured TGI for this molecule: CN(C)CCCn1c(=O)c2ccccc2c2ccccc21
Reply: 78.5 µM

Query: Please give the measured TGI for this molecule: O=[N+]([O-])c1nccn1CCCNc1ccnc2cc(Cl)ccc12
Reply: > 100 µM

Query: Please give the measured TGI for this molecule: O=C(O)c1ccc(C(=O)c2ccccc2)c(C(=O)O)c1
Reply: > 100 µM

Query: Please give the measured TGI for this molecule: COc1nc(=O)n(COC(CO)CN2C(=O)c3ccccc3C2=O)cc1Cc1cccc(OCc2ccccc2)c1 (stereo unspecified)
Reply: 51.8 µM

Query: Please give the measured TGI for this molecule: CC1(/C=C/CCSc2ccccc2)CC(=O)C2CC1C2(C)C (stereo unspecified)
Reply: > 83.7 µM

Query: Please give the measured TGI for this molecule: C1CCC([PH+](C2CCCCC2)C2CCCCC2[PH+](C2CCCCC2)C2CCCCC2)CC1.[Au].[CH-]1CCCCC1CC1CCCC[N-]1 (stereo unspecified)
Reply: 1.59 µM

Query: Please give the measured TGI for this molecule: CN1CCN(C(=O)c2cc(-c3ccc4ncnc(N5CCc6cc(F)c(Cl)cc65)c4c3)cnc2N)CC1
Reply: 5.71 µM

Query: Please give the measured TGI for this molecule: CO/N=C(/C)c1ccc(NC(=O)CSc2nnc(-c3ccncc3)n2-c2ccccc2)cc1
Reply: > 100 µM

Query: Please give the measured TGI for this molecule: CN[C@@H](C)C(=O)N[C@H](C(=O)N1CCC[C@H]1C(=O)Nc1sc(-c2ncco2)nc1-c1ccccc1)C1CCCCC1
Reply: > 77.7 µM

Query: Please give the measured TGI for this molecule: NC(N)=NCCCC(NC(=O)c1cccc2c(=O)c3ccccc3[nH]c12)C(=O)O (stereo unspecified)
Reply: > 100 µM
